TARGET: T1, Atypical chemokine receptor 2, wild type (ACKR2-WT) (human, UniProt O00590 1-384)
T1 construct: Atypical chemokine receptor 2 (ACKR2), human, wild type allele, expressed on the surface of CHO-k1 cells; also called CCBP-WT; source: CHO-k1 cells, transfected (lipofectamine), G418 selected, enriched with anti-PE MicroBeads; on cells
T1 sequence (looked up): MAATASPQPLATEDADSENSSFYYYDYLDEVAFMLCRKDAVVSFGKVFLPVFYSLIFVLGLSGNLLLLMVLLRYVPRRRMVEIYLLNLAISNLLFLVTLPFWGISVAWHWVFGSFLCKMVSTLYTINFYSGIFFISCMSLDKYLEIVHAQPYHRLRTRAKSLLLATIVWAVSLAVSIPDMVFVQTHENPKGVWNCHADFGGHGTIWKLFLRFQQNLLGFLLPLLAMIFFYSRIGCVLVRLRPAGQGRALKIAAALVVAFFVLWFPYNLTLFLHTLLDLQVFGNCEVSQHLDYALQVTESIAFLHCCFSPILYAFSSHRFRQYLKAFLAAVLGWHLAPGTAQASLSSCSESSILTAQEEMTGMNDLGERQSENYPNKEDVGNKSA
METHOD_DESCRIPTION: flow cytometry on cells; competition: transfected CHO-k1 cells incubated with unconjugated chemokine at 37 °C for 45 minutes, then stained with anti-human ACKR2 polyclonal IgG and PE secondary; blockage = 100 minus percent of ACKR2-positive cells; titration with non-linear analysis for Kd
PARTICULARS: one partner purified
READOUT_TYPE: Kd (nM)
Give just the numeric value; nM need not be written.

[ask] Query (binder): Chemokine ligand 4 (CCL4), unconjugated (ligand, UniProt P13236 24-92, looked up, Chemokine ligand 4 (CCL4), unconjugated; also called unconjugated CCL4; source: bought: PEPROTECH, Cat #300-.9) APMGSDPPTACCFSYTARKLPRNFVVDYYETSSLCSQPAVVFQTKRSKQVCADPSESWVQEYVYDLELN ; field requested: Kd
[reply] 600

// provenance: paper PMC7229167
